B1: extracellular domain of CD147 (CD147^ECD) [human] / Trefoil factor 3 (TFF3), recombinant mature form (residues 22-80) [human] (parent complex)
chain 1: AAGTVFTTVEDLGSKILLTCSLNDSATEVTGHRWLKGGVVLKEDALPGQKTEFKVDSDDQWGEYSCVFLPEPMGTANIQLHGPPRVKAVKSSEHINEGETAMLVCKSESVPPVTDWAWYKITDSEDKALMNGSESRFFVSSSQGRSELHIENLNMEADPGQYRCNGTSSKGSDQAIITLRVRSH
chain 2: EEYVGLSANQCAVPAKDRVDCGYPHVTPKECNNRGCCFDSRIPGVPWCFKPLQEAECTF

variants of: B1; test: SPR (Biacore); value read at end of injection, ~120 s; concentrations not given; read off a plot
Attribute Measured: response

Example entries begin here.
INSERT INTO measurements (variant_annotation, attribute_measured, experimental_result) VALUES
  ('chain 1 V110A', 'response', '~4.7 Ru'),
  ('chain 1 R145A', 'response', '~8.7 Ru'),
  ('chain 1 T100A', 'response', '~14 Ru'),
  ('chain 1 G74A', 'response', '~4.3 Ru');

**Query** Give recorded response. chain 1 R33A
**Result** ~2 Ru
